GI50 reference
# System: HOP-62 NSCLC
# ASSAY_SUMMARY: NCI tumour cell line growth inhibition, 48 h
READOUT_KIND: GI50

> print(dat)
                                    molecule  readout.kind    reading
 1  COc1cc(NS(C)(=O)=O)ccc1Nc1c2ccc(Cl)cc2nc2c(OC)cccc12          GI50  0.0561 µM
 2  COc1cc2c3c(n(CCCCOC(=O)C(F)(F)F)c(=O)c2cc1OC)-c1cc2c(cc1C3=O)OCO2          GI50    10.4 µM
 3  CCOc1cccc(/C=N/NC(=O)c2ccc(Nc3ccnc(C(F)(F)F)c3)cc2)c1O          GI50    2.23 µM
 4  Cc1cc2c(cc1Cl)SC1=CC(=O)N(c3ccccc3)C1=NS2(=O)=O          GI50      46 µM
 5  Cn1cncc1[C@@](N)(c1ccc(Cl)cc1)c1ccc2c(c1)c(-c1cccc(Cl)c1)cc(=O)n2C          GI50    5.51 µM
 6  CC(C)=CCC[C@H](C)[C@@H]1CC[C@]2(C)C3CC[C@]4(OC4(C)C)C(CCCO)[C@]3(C)CC[C@@]12C (stereo not given in full)          GI50    20.8 µM
 7  Cn1cc(-c2nc(-c3c[nH]c4ncccc34)cs2)c2cc(F)ccc21          GI50    4.11 µM
 8  O=S(=O)(O)O.[NH-]C1CCCCC1[NH-].[Pt+2] (stereo not given)          GI50   > 100 µM
 9  CC1=C[C@H]2c3c(c(O)c(O)c4oc5c(C)cccc5c(=O)c34)[C@H](c3cc(O)c(O)c4oc5c(C)cccc5c(=O)c34)[C@H]2C(C)(C)C1          GI50    1.15 µM
10     C[n+]1c(/C=C\c2ccc(Cl)cc2)ccc2ccccc21          GI50    29.2 µM
